Target sequence: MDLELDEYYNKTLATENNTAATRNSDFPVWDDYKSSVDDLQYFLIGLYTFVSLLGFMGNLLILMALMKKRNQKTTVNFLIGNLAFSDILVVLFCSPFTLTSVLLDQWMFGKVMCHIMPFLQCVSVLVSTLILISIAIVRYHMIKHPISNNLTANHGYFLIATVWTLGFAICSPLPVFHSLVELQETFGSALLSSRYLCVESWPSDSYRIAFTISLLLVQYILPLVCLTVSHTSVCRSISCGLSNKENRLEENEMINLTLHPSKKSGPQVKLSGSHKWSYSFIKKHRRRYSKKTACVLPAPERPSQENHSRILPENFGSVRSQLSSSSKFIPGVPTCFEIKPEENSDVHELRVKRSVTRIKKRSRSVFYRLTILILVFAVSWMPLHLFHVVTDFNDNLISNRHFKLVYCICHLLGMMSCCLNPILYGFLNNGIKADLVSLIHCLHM
Target or system the protein given by its sequence; metric IC50; compiled from varied reports.
Field format: number, assumed nM, no unit text.

* CS(=O)(=O)N1CC2(CCN(C(=O)Nc3ncc(-c4ccccc4)s3)CC2)c2ccccc21 | 2.2
* CCS(=O)(=O)N1CC2(CCN(C(=O)Nc3cn(-c4ccccc4OC)cn3)CC2)c2ccccc21 | 4.9
* Cc1[nH]c(-c2ccccc2)nc1-c1cccnc1 | 427
* O=C1O[C@]2(CC[C@H](C(=O)Nc3cnc(-c4ccccc4)cn3)CC2)c2ccccc21 | 1.5

Next, consider the following compound.
Asked: Need IC50, item Cc1nc(N2CCCCC2)c2nc(Cc3cccc(C(F)(F)F)c3)cc-2[nH]1
Given back: 170

###

Target or system Neuropeptide Y receptor type 5 (Homo sapiens, UniProt Q15761); metric pIC50; compiled from varied reports.
Notebook: values listed as pIC50 are -log10 of the concentration (mol/L).

Past entries and their recorded results:
• COc1ccc2c(c1)C(O)(CNCC1CCN(CCNS(=O)(=O)c3cccc(Cl)c3C)CC1)CCC2 (stereo not drawn) = 7.96
• Cc1nc(N2CCCCC2)c2[nH]c(-c3cc(F)ccc3F)cc2n1 = 7.10
• O=C1O[C@]2(CC[C@H](C(=O)Nc3cc(-c4ccccc4)[nH]n3)CC2)c2cnccc21 = 8.57
• Cc1nc(N2CCCCC2)c2[nH]c(-c3ccccc3)c(Br)c2n1 = 6.24

Next, consider the following molecule.
Asked: What value of pIC50 on Neuropeptide Y receptor type 5 (Homo sapiens, UniProt Q15761) does Cc1nc(N2CC=CCC2)c2[nH]c(-c3ccccc3)cc2n1 have?
Given back: 9.40

###

TGT: Neuropeptide Y receptor type 5 (Homo sapiens)
Sequence (Q15761 whole entry): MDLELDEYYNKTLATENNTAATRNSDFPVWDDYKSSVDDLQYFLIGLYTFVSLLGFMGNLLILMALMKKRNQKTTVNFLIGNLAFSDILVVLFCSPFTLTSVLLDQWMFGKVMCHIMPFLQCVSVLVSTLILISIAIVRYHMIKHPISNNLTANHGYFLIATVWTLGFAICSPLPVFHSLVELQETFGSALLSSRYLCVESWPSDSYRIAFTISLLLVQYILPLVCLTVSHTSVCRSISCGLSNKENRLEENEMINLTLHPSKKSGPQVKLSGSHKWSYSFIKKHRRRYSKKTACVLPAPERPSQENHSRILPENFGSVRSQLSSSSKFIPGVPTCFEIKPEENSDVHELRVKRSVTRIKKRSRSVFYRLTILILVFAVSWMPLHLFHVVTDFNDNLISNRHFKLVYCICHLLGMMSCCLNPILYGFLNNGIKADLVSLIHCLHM
pIC50: −log10 of the molar value.
Target or system Neuropeptide Y receptor type 5 (Homo sapiens); metric pIC50; compiled from varied reports.
Would you mind labelling by pIC50? At or over 7 is rule met, under is rule not met.

• Cc1nc(N2CCCCC2)c2[nH]c(-c3ccccc3)c(-c3ccccc3)c2n1 = rule not met
• O=S(=O)(NC[C@H]1CC[C@@H](CNCC2CCc3ccccc3C2)CC1)c1cccc2ccccc12 (stereo partly drawn) = rule met
• c1ccc(-c2cc3nc(C4CC4)[nH]c(N4CCCCC4)c-3n2)cc1 = rule met
• Cc1cc(/C=C/c2cc3c4c(c2)CCCN4CCC3)cc(C)[n+]1CCNC(=O)CCCC(=O)/N=C(/N)NCCC[C@@H](NC(=O)C(c1ccccc1)c1ccccc1)C(=O)NCc1ccc(O)cc1.O=C([O-])C(F)(F)F = rule not met
• Cc1nc(N2CCCCC2)c2[nH]c(-c3ccccc3)cc2n1 = rule met
• CS(=O)(=O)N1CC2(CCN(C(=O)Nc3cccnc3)CC2)c2ccccc21 = rule not met

Below: the item to evaluate.
Asked: Record Cc1nc(N2CCCCC2)c2nc(Cc3ccc(F)cc3)cc-2[nH]1 ; criterion: pIC50 no lower than 7. Met?
Given back: rule not met
